- System: Human peripheral blood mononuclear cells (PBMC)
- test_details: Mixed human lymphocyte reaction (MLR) assay
- Assay type: cell-based
- reported_conditions: read-out: % inhibition of proliferation (100 μM), 100 μM, referred to uninhibited controls (0%)
The following compounds are listed with their measured inhibition at 100 µM values.

| compound | test_system | inhibition at 100 µM, % |
| --- | --- | --- |
| CCCCn1cnc2c1c(=O)n(CCCCCC(C)(C)O)c(=O)n2CC | Human peripheral blood mononuclear cells (PBMC) | 94 |
| CCCCn1cnc2c1c(=O)n(CCCCC(C)(C)O)c(=O)n2C | Human peripheral blood mononuclear cells (PBMC) | 91 |
| CCCn1cnc2c1c(=O)n(CCCCC(C)O)c(=O)n2C (stereo not drawn) | Human peripheral blood mononuclear cells (PBMC) | 83 |
| CCOCn1cnc2c1c(=O)n(CCCCC(C)(C)O)c(=O)n2C | Human peripheral blood mononuclear cells (PBMC) | 61 |
| Cn1c(=O)n(CCCCC(C)(C)O)c(=O)c2c1ncn2CC1CC1 | Human peripheral blood mononuclear cells (PBMC) | 85 |
| CCCCCCn1c(=O)c2c(ncn2C)n(C)c1=O | Human peripheral blood mononuclear cells (PBMC) | 85 |
